System: HCT-15
Test: NCI tumour cell line growth inhibition, 48 h
PROPERTY LABEL: GI50

OCC1OC(n2nc(-c3ccccc3)nc2-c2cnccn2)C(O)C1O (stereo unspecified) ... > 100 µM

Ask: Report measured GI50; entry is O=C(c1ccc([N+](=O)[O-])cc1)C(Br)C(Br)c1ccnc2ccccc12 (stereo unspecified)
Result: 6.76 µM

Ask: Report measured GI50; entry is CCSC1=CC(Cc2ccc(OC)cc2)N(C(=O)OC)C1 (stereo unspecified)
Result: 40.7 µM

Ask: Report measured GI50; entry is CN(C)C/C=C(/c1ccc(Br)cc1)c1cccnc1
Result: > 100 µM

Ask: Report measured GI50; entry is CCOC(=O)C(=Cc1ccccc1Cl)C(=O)OCC
Result: 1.72 µM

Ask: Report measured GI50; entry is O=C(Nc1ccc(N2C(=O)CSC2c2cccs2)cc1)c1ccc(N2C(=O)CSC2c2cccs2)cc1 (stereo unspecified)
Result: > 100 µM

###

System: UACC-62
Test: NCI tumour cell line growth inhibition, 48 h
Calls of active or inactive are those of the source. Cut-off read from the data, not from the text of the source: active = GI50 up to about 1.1 µM and inactive = higher.
The reply should be one of these categories: 1 = active, 0 = inactive

Record excerpt, results attached:
COc1ccccc1C(O)[C@@H]1C[C@@H]2[C@H]3CC[C@@](C)([C@@H]2O1)C3(C)C (some centres not stated) ... 0
CC(C)(C)OC(=O)NCCNC(=O)CN(CC(=O)O)C1CCCCC1N(CC(=O)O)CC(=O)O (configuration not stated) ... 0
Clc1nc(-c2ccccc2)nc(Cl)c1Cl ... 0
COc1ccc(OC)c(N2C(=O)/C(=C\c3ccccc3)SC2c2cc(OC)c(OC)c(OC)c2)c1 (configuration not stated) ... 0
CCCCOC(=O)NC(Nc1cccc(C(F)(F)F)c1)(C(F)(F)F)C(F)(F)F ... 0

Ask: Outcome logged for CSC1NC(c2ccccc2)=C(C#N)C(=O)N1C1OCC(OC(C)=O)C(OC(C)=O)C1OC(C)=O (configuration not stated) in this assay:
Result: 0

Ask: Outcome logged for O=C1C2C3C=C4c5ccccc5N(c5ccccc5)C4(C2C(=O)N1c1ccc(Br)cc1)[C@H]1C(=O)N(c2ccc(Br)cc2)C(=O)[C@@H]31 (some centres not stated) in this assay:
Result: 0

Ask: Outcome logged for CCOC(=O)C1CCC(=O)N1C(=O)c1ccccc1 (configuration not stated) in this assay:
Result: 0

Ask: Outcome logged for Cc1cc(C)n(-c2nc3ccccc3c(=O)[nH]2)n1 in this assay:
Result: 0

Ask: Outcome logged for COc1cc2c(cc1OC)C(OC)N(C)c1c-2ccc2cc3c(cc12)OCO3 (configuration not stated) in this assay:
Result: 1

Ask: Outcome logged for Cc1nc2c(Br)cc(Br)cc2c(=O)n1-c1ccccc1NC1OC(CO)C(O)C(O)C1O (configuration not stated) in this assay:
Result: 0

Ask: Outcome logged for COc1ccc(/C=C2\CN(C)CC3=C2OC(N)=C(C#N)C3c2ccc(OC)cc2)cc1 (configuration not stated) in this assay:
Result: 0

Ask: Outcome logged for CN1C(NCCO)=NS(=O)(=O)c2ccccc21 in this assay:
Result: 0

Ask: Outcome logged for COc1ccc(NC(=O)/C(Cc2nc3ccccc3nc2O)=N\O)c(OC)c1 in this assay:
Result: 0

Ask: Outcome logged for CCCCOC(=O)NC(=O)c1cn(CCCOC(=O)NCCCCCCNC(=O)OCCCn2cc(C(=O)NC(=O)OCCCC)c(=O)[nH]c2=O)c(=O)[nH]c1=O in this assay:
Result: 0

Ask: Outcome logged for NC(CCC(=O)c1ccccn1)C(=O)O (configuration not stated) in this assay:
Result: 0

Ask: Outcome logged for CC(C)(C)c1ccc(-c2nc3ccc(Cl)cc3c(=O)o2)cc1 in this assay:
Result: 0

Ask: Outcome logged for C=CCN1C(=O)/C(=C/c2ccccc2)N=C1SC/C=C/C in this assay:
Result: 0

Ask: Outcome logged for O=C1CCC2(c3ccccc3)Nc3ccncc3N12 (configuration not stated) in this assay:
Result: 0

Ask: Outcome logged for CN(C)CCC(=O)/C=C\c1ccccc1 in this assay:
Result: 0

Ask: Outcome logged for N#CC(=N)c1ncn(-c2ccc(N)cc2)c1N in this assay:
Result: 0

Ask: Outcome logged for NC(=O)N/N=C(/Cc1nc2ccc(C(=O)c3ccccc3)cc2nc1O)C(=O)Nc1ccc(C(F)(F)F)cc1[N+](=O)[O-] in this assay:
Result: 0

Ask: Outcome logged for OCc1ccc2c(c1)CC1(Cc3ccccc3C1)C2 in this assay:
Result: 0

Ask: Outcome logged for CC(=O)ON(C(C)=O)c1ccc(-c2nc3ccccc3s2)cc1C in this assay:
Result: 0

Ask: Outcome logged for CCOC(=O)C(SCCO)C(C(=O)OCC)n1cc(C)c(=O)[nH]c1=O (configuration not stated) in this assay:
Result: 0

meta.source: ChEMBL document CHEMBL1201862
